Taken from the Human Domainome abundance scans (Beltran et al. 2025).

B1: Connector enhancer of kinase suppressor of ras 2, residues 9 to 71; numbered along this chain, Q8WXI2 (parent)
chain: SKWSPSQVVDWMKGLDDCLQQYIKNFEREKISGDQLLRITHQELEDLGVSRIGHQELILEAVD

variants of: B1; assay: abundance fitness (aPCA) (normalised: wild type 0, dead -1); higher = more abundant; growth selection in yeast, the domain comes from the species named; conditions: Homo sapiens
Metric Name: abundance fitness
// no unit, no text: just the number

Data point: D34W ; abundance fitness = -0.142

So for I52A , the logged abundance fitness turned out to be -0.011

Reported abundance fitness for Y22N was -0.747

The variant identified as G53T registered its abundance fitness at 0.042

abundance fitness measured on D63K = -0.059

Form field abundance fitness, entry L57W : -0.987

Note to self: abundance fitness recorded for L36H was -0.971

Given item E27I , the value recorded as its abundance fitness is -0.436

Recorded abundance fitness (variant G53K ): 0.077

Lab book: abundance fitness of L36Y noted as -1.01

The variant identified as C18S registered its abundance fitness at -0.024

variant E29F , abundance fitness observed: -0.148

Measured abundance fitness of G33H : -0.669

The variant R38C showed abundance fitness equal to -0.189

abundance fitness in this record for H54Q : -0.944

Lab book: abundance fitness of C18D noted as 0.006

The recorded abundance fitness for entry I31Q equals -0.87

So, I58Q ? Its abundance fitness was -0.696

The variant listed as G14I shows abundance fitness equal to -0.922

# abundance fitness of G33F = -0.198

The value of abundance fitness measured for the variant D46A turned out to be -0.054

The reported value for L57M in terms of abundance fitness is 0.035

Measured abundance fitness of V49T : -0.857

Record I58W , field abundance fitness: -0.734

Entry R51N , abundance fitness reported as 0.063

Per the record, C18G has abundance fitness of -0.182

For reference, reported abundance fitness for Q20L stands at -0.121

# variant R28I ; its abundance fitness = -0.099

Briefly, abundance fitness measured for Q21K : -0.204

The reported value for K30L in terms of abundance fitness is -0.225

Summary for this variant, S32R : abundance fitness is -0.142

Entry C18K — recorded abundance fitness = -0.301

Quick note, abundance fitness for D17W landed at -0.497

// recorded abundance fitness for L47S : -0.813

abundance fitness in this record for S32I : -0.589

Entry I23M ; abundance fitness = -0.34

The recorded abundance fitness for entry L59Y equals -0.61

Reported abundance fitness for D34A was 0.037

Recorded abundance fitness (variant H41K ): 0.029

The variant L57E showed abundance fitness equal to -0.446

According to the records, this variant S50G displays abundance fitness of -0.258

# variant L44H ; its abundance fitness = -0.914

The measured abundance fitness associated with I31W reads -0.74

// sample L57K , its abundance fitness was 0.021

Record F26K . Reported abundance fitness: -0.852

abundance fitness reading for L36E : -0.769
